Quick reference for CFU/mL among some molecules
Tested on: Mycobacterium tuberculosis H37Rv (ATCC 27294)
Type: cell-based
Settings: concentration 5 μg/mL; […]
Endpoint Name: CFU/mL (CFU/mL)

[[record]]
molecule = "CO[C@H]1/C=C/O[C@@]2(C)Oc3c(C)c(O)c4c(O)c(c(/C=N/N5CCN(C6CCCC6)CC5)c(O)c4c3C2=O)NC(=O)/C(C)=C\\C=C\\[C@H](C)[C@H](O)[C@@H](C)[C@@H](O)[C@@H](C)[C@H](OC(C)=O)[C@@H]1C [Rifapentine, rifapentine]"
experimental_value = "1.80E+07"

[[record]]
molecule = "CO[C@H]1/C=C/O[C@@]2(C)Oc3c(C)c(O)c4c(O)c(c(/C=N/N5CCN(C)CC5)c(O)c4c3C2=O)NC(=O)/C(C)=C\\C=C\\[C@H](C)[C@H](O)[C@@H](C)[C@@H](O)[C@@H](C)[C@H](OC(C)=O)[C@@H]1C [Rifampicin, rifampicin]"
experimental_value = "2.19E+07"

[[record]]
molecule = "CO[C@H]1/C=C/O[C@@]2(C)Oc3c(C)c(O)c4c(c3C2=O)C2=NC3(CCN(CCn5c([N+](=O)[O-])cnc5C)CC3)NC2=C(NC(=O)/C(C)=C\\C=C\\[C@H](C)[C@H](O)[C@@H](C)[C@@H](O)[C@@H](C)[C@H](OC(C)=O)[C@@H]1C)C4=O"
experimental_value = "9.75E+03"

[[record]]
molecule = "CO[C@H]1/C=C/O[C@@]2(C)Oc3c(C)c(O)c4c(c3C2=O)C2=NC3(CCN(CC(C)C)CC3)NC2=C(NC(=O)/C(C)=C\\C=C\\[C@H](C)[C@H](O)[C@@H](C)[C@@H](O)[C@@H](C)[C@H](OC(C)=O)[C@@H]1C)C4=O [Rifabutin, rifabutin]"
experimental_value = "9.77E+07"


* * *

System: M. tuberculosis Erdman pFCA LuxAB
Settings: group average, 6 mice; day 21; QD for 12 days; conjugate 100, linezolid 100, PA-824 50, rifampicin 10, metronidazole 200 mg/kg
Could you mark each record class 1 if its Log10 CFU counts in the lungs, Average falls strictly under 4 Log10 CFU, and class 0 if it equals or exceeds it?

[[record]]
compound = "O=[N+]([O-])c1cn2c(n1)OC[C@@H](OCc1ccc(OC(F)(F)F)cc1)C2 [PA-824]"
test_system = "M. tuberculosis Erdman pFCA LuxAB"
discrete_label = "class 1"

[[record]]
compound = "CO[C@H]1/C=C/O[C@@]2(C)Oc3c(C)c(O)c4c(c3C2=O)C2=NC3(CCN(CCn5c([N+](=O)[O-])cnc5C)CC3)NC2=C(NC(=O)/C(C)=C\\C=C\\[C@H](C)[C@H](O)[C@@H](C)[C@@H](O)[C@@H](C)[C@H](OC(C)=O)[C@@H]1C)C4=O"
test_system = "M. tuberculosis Erdman pFCA LuxAB"
discrete_label = "class 1"

[[record]]
compound = "Cc1ncc([N+](=O)[O-])n1CCO [Metronidazole, metronidazole]"
test_system = "M. tuberculosis Erdman pFCA LuxAB"
discrete_label = "class 0"

[[record]]
compound = "CO[C@H]1/C=C/O[C@@]2(C)Oc3c(C)c(O)c4c(O)c(c(/C=N/N5CCN(C)CC5)c(O)c4c3C2=O)NC(=O)/C(C)=C\\C=C\\[C@H](C)[C@H](O)[C@@H](C)[C@@H](O)[C@@H](C)[C@H](OC(C)=O)[C@@H]1C [Rifampicin, rifampicin]"
test_system = "M. tuberculosis Erdman pFCA LuxAB"
discrete_label = "class 0"

[[record]]
compound = "CC(=O)NC[C@H]1CN(c2ccc(N3CCOCC3)c(F)c2)C(=O)O1 [linezolid]"
test_system = "M. tuberculosis Erdman pFCA LuxAB"
discrete_label = "class 0"


* * *

Test system: M. tuberculosis Erdman pFCA LuxAB
Settings: day 21; QD for 12 days from day 7; conjugate 100, linezolid 100, PA-824 50, rifampicin 10, metronidazole 200 mg/kg
Endpoint Name: Log10 CFU counts in the lungs, Mouse A (Log10 CFU)

[[record]]
substance_smiles = "Cc1ncc([N+](=O)[O-])n1CCO"
experimental_value = 6.95

[[record]]
substance_smiles = "O=[N+]([O-])c1cn2c(n1)OC[C@@H](OCc1ccc(OC(F)(F)F)cc1)C2"
experimental_value = 3.29

[[record]]
substance_smiles = "CO[C@H]1/C=C/O[C@@]2(C)Oc3c(C)c(O)c4c(c3C2=O)C2=NC3(CCN(CCn5c([N+](=O)[O-])cnc5C)CC3)NC2=C(NC(=O)/C(C)=C\\C=C\\[C@H](C)[C@H](O)[C@@H](C)[C@@H](O)[C@@H](C)[C@H](OC(C)=O)[C@@H]1C)C4=O"
experimental_value = 2.48

[[record]]
substance_smiles = "CC(=O)NC[C@H]1CN(c2ccc(N3CCOCC3)c(F)c2)C(=O)O1"
experimental_value = 5.86

[[record]]
substance_smiles = "CO[C@H]1/C=C/O[C@@]2(C)Oc3c(C)c(O)c4c(O)c(c(/C=N/N5CCN(C)CC5)c(O)c4c3C2=O)NC(=O)/C(C)=C\\C=C\\[C@H](C)[C@H](O)[C@@H](C)[C@@H](O)[C@@H](C)[C@H](OC(C)=O)[C@@H]1C"
experimental_value = 6.29


* * *

System: Mycobacterium tuberculosis H37Rv (ATCC 27294)
Assay type: cell-based
Settings: concentration 20 μg/mL; […]
Endpoint Name: log10(CFU/mL) (log10 of the value in CFU/mL)

[[record]]
substance_smiles = "Cc1ncc([N+](=O)[O-])n1CCO"
experimental_value = 8.22

[[record]]
substance_smiles = "CO[C@H]1/C=C/O[C@@]2(C)Oc3c(C)c(O)c4c(O)c(c(/C=N/N5CCN(C6CCCC6)CC5)c(O)c4c3C2=O)NC(=O)/C(C)=C\\C=C\\[C@H](C)[C@H](O)[C@@H](C)[C@@H](O)[C@@H](C)[C@H](OC(C)=O)[C@@H]1C"
experimental_value = 7.28

[[record]]
substance_smiles = "CO[C@H]1/C=C/O[C@@]2(C)Oc3c(C)c(O)c4c(O)c(c(/C=N/N5CCN(C)CC5)c(O)c4c3C2=O)NC(=O)/C(C)=C\\C=C\\[C@H](C)[C@H](O)[C@@H](C)[C@@H](O)[C@@H](C)[C@H](OC(C)=O)[C@@H]1C"
experimental_value = 7.09

[[record]]
substance_smiles = "CO[C@H]1/C=C/O[C@@]2(C)Oc3c(C)c(O)c4c(c3C2=O)C2=NC3(CCN(CCn5c([N+](=O)[O-])cnc5C)CC3)NC2=C(NC(=O)/C(C)=C\\C=C\\[C@H](C)[C@H](O)[C@@H](C)[C@@H](O)[C@@H](C)[C@H](OC(C)=O)[C@@H]1C)C4=O"
experimental_value = 3.40

[[record]]
substance_smiles = "CO[C@H]1/C=C/O[C@@]2(C)Oc3c(C)c(O)c4c(c3C2=O)C2=NC3(CCN(CC(C)C)CC3)NC2=C(NC(=O)/C(C)=C\\C=C\\[C@H](C)[C@H](O)[C@@H](C)[C@@H](O)[C@@H](C)[C@H](OC(C)=O)[C@@H]1C)C4=O"
experimental_value = 6.86


* * *

Quick reference for Log reduction in CFU among some compounds
Test system: Mycobacterium tuberculosis H37Rv (ATCC 27294)
Assay type: cell-based
Settings: concentration 20 μg/mL; vs drug-free control; […]
Endpoint Name: Log reduction in CFU

[[record]]
compound = "CO[C@H]1/C=C/O[C@@]2(C)Oc3c(C)c(O)c4c(c3C2=O)C2=NC3(CCN(CC(C)C)CC3)NC2=C(NC(=O)/C(C)=C\\C=C\\[C@H](C)[C@H](O)[C@@H](C)[C@@H](O)[C@@H](C)[C@H](OC(C)=O)[C@@H]1C)C4=O [Rifabutin, rifabutin]"
test_system = "Mycobacterium tuberculosis H37Rv (ATCC 27294)"
experimental_value = 1.52

[[record]]
compound = "CO[C@H]1/C=C/O[C@@]2(C)Oc3c(C)c(O)c4c(c3C2=O)C2=NC3(CCN(CCn5c([N+](=O)[O-])cnc5C)CC3)NC2=C(NC(=O)/C(C)=C\\C=C\\[C@H](C)[C@H](O)[C@@H](C)[C@@H](O)[C@@H](C)[C@H](OC(C)=O)[C@@H]1C)C4=O"
test_system = "Mycobacterium tuberculosis H37Rv (ATCC 27294)"
experimental_value = 4.98

[[record]]
compound = "CO[C@H]1/C=C/O[C@@]2(C)Oc3c(C)c(O)c4c(O)c(c(/C=N/N5CCN(C6CCCC6)CC5)c(O)c4c3C2=O)NC(=O)/C(C)=C\\C=C\\[C@H](C)[C@H](O)[C@@H](C)[C@@H](O)[C@@H](C)[C@H](OC(C)=O)[C@@H]1C [Rifapentine, rifapentine]"
test_system = "Mycobacterium tuberculosis H37Rv (ATCC 27294)"
experimental_value = 1.1


Cited source for all entries: patent US20260191965A1
